- Test system: MDA-MB-435
- measurement protocol: Cytotoxicity against human MDA-MB-435 cells assessed as decrease in cell viability after 72 hrs by MTT assay
- Format: functional, cell-based
- measurement context: MDA-MB-435, 72 h
Please go through the items and note down their pIC50.
Give bare numbers, as −log10 of the molar value.

Below, each entry is followed by its recorded pIC50 result.
>>> reading("COc1cc(O)c2c(=O)c3ccc(O)c(O)c3oc2c1CCC(C)(C)O [NIGROLINEAXANTHONE T]")
5.05
>>> reading("CC(C)=CCC/C(C)=C/C[C@@H]1C(C)(C)[C@@]2(CC=C(C)C)C(=O)c3c(oc4cc(O)c(O)cc4c3=O)[C@](CC=C(C)C)(C2=O)C1(C)C [OBLONGIFOLIN G]")
4.78
>>> reading("CC(C)=CCC/C(C)=C/C[C@H]1C(C)(C)[C@@]2(CC=C(C)C)C(=O)c3c(oc4cc(O)c(O)cc4c3=O)[C@](CC=C(C)C)(C2=O)C1(C)C [OBLONGIFOLIN F]")
4.78
>>> reading("CC(C)=CCC/C(C)=C/C[C@@H]1C[C@]2(CC=C(C)C)C(=O)[C@@](CC=C(C)C)(C(=O)C(C(=O)c3cccc(O)c3)=C2O)[C@@]1(C)CCC=C(C)C [GARCICOWIN B]")
4.90

Alright, here's another compound for you.
The compound identified as `CC1(C)C=Cc2cc3c(=O)c4c(O)cc(O)cc4oc3c(O)c2O1` registered its pIC50 at 5.41
